Biological target: HDAC9 (Homo sapiens)
Sequence (Q9UKV0 whole entry, species assumed): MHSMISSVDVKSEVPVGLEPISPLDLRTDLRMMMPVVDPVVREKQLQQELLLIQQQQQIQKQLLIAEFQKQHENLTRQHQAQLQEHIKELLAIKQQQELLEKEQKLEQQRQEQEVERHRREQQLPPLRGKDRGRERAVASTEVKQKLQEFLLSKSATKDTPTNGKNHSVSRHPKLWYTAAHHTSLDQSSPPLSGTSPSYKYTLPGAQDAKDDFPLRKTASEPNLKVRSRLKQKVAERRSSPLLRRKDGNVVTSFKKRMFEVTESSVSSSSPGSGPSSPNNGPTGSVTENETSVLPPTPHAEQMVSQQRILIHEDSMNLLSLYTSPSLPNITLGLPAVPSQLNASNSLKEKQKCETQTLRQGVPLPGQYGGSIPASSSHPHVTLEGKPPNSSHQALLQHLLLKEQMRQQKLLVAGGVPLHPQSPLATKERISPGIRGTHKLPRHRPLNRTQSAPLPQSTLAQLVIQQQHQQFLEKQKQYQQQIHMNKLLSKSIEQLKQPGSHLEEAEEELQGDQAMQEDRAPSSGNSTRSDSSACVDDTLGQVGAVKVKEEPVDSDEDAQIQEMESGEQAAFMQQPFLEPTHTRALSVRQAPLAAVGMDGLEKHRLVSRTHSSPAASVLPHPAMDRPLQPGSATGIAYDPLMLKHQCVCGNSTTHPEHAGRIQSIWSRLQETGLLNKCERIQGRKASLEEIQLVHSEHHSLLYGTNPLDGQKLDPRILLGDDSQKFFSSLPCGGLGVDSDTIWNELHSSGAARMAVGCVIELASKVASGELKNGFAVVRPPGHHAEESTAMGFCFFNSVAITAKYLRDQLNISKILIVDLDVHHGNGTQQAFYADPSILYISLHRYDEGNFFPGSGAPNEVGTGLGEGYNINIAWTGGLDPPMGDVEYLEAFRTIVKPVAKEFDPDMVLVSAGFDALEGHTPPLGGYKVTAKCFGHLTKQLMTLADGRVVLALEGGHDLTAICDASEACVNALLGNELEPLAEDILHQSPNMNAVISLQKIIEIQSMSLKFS
QUANTITY_KIND: pIC50
Entry type: numeric. Quantity: pIC50, the -log10 of concentration in molar units.

**Q:** Fill in reported pIC50 for this entry: CC1CN(Cc2ccc(Nc3nccc(-c4ccc(C(=O)NO)cc4)n3)cc2F)CCO1 (racemic) [Compound I-8]
**A:** 4.66

====

Target: HDAC2 (Homo sapiens)
Sequence (Q92769 whole entry, species assumed): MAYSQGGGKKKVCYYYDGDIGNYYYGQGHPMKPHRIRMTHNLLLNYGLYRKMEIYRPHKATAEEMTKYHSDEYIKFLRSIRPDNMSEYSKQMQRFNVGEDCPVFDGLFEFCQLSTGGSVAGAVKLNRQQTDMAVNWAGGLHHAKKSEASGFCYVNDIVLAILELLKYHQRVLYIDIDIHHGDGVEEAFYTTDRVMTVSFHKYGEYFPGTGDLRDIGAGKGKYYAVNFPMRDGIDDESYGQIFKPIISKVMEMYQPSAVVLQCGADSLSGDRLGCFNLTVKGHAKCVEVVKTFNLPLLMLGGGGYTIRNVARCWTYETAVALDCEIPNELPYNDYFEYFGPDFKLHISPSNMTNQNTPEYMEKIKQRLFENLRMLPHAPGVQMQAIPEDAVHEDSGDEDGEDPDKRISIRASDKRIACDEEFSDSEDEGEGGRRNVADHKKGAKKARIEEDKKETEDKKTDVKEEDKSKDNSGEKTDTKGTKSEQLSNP
Assay: HDAC selectivity panel: HDAC2
Assay type: biochemical
QUANTITY_KIND: pIC50
FYI, pIC50 means -log10 of a concentration in mol per litre.

**Q:** State its pIC50 for this molecule: CC1CN(Cc2ccc(Nc3nccc(-c4ccc(C(=O)NO)cc4)n3)cc2F)CCO1 (racemic) [Compound I-8]
**A:** 5.55
